molecular target: CCK (gallbladder) receptor (Cavia porcellus, UniProt Q63931); construct: Isolated, strip preparations were prepared from gall-bladders removed from male Dunkin-Hartley guinea-pigs; from tissue; host or cells: guinea-pig gall-bladder strips; test: CCK-receptor bioassay, isolated guinea-pig gall-bladder strip preparations, CCK-8 as agonist; assay type: cell-based, male Dunkin-Hartley guinea-pigs; details: negative log10 of equilibrium dissociation constant; guinea-pig gall-bladder strips; CCK-8 agonist; test compound incubated for 60 minutes; 37° C; read-out: pKB versus CCK (gallbladder) (converted)
Sequence (Q63931 whole entry): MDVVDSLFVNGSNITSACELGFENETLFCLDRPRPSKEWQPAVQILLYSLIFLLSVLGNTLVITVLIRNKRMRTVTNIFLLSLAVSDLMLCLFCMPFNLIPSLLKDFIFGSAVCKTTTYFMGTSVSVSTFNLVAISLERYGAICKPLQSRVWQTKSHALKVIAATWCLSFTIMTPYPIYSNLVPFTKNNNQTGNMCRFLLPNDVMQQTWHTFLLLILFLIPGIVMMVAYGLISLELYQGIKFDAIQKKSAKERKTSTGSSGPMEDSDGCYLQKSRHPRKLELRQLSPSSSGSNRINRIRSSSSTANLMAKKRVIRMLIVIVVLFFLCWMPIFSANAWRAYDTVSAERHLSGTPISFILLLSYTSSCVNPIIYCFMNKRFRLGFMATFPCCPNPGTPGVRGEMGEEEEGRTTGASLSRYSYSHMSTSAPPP
Quick rule for you: Kb under 200 nM gets MET, anything else gets NOT MET.

Example results:
moleculeSmiles: CCCCCCN(CCCCCC)C(=O)[C@H](CC(=O)O)NS(=O)(=O)c1ccc2ccccc2c1
classAssignment: MET
--
moleculeSmiles: O=C(O)C[C@H](NS(=O)(=O)c1ccc2ccccc2c1)C(=O)N1CCC2(CCCC2)CC1
classAssignment: NOT MET
--
moleculeSmiles: CCCCCN(CCCCC)C(=O)[C@H](CC(=O)O)NS(=O)(=O)c1cccc2ccccc12
classAssignment: NOT MET

Problem: Strictly below 200 nM: is that where Kb of `O=C(O)C[C@H](NS(=O)(=O)c1ccc2ccccc2c1)C(=O)NC1CCCCCCCCCCC1` sits?
Solution: MET

Problem: Does `O=C(O)C[C@H](NS(=O)(=O)c1ccc2ccccc2c1)C(=O)NCCC1CCCCC1` have Kb strictly under 200 nM?
Solution: MET

Problem: # TODO verify Kb < 200 nM strictly for this compound: `O=C(O)C[C@H](NS(=O)(=O)c1ccc2ccccc2c1)C(=O)NCCC12CC3CC(CC(C3)C1)C2`
Solution: MET

Problem: Please check: Kb for `CCCCCN(CCCCC)C(=O)[C@@H](CC(=O)O)NS(=O)(=O)c1ccc2ccccc2c1` , strictly under 200 nM or not?
Solution: MET
